The entries below are paired with their reported % unbound [14C].
system.tested: radiolabelled octapeptide repeat peptide *acetyl…amide
property.name: % unbound [14C] (%)

* peptide 116, WLVWIA, on Toyopearl resin, free amino terminal | 85
* peptide 111, LWWLFV, on Toyopearl resin, free amino terminal | 85
* peptide 97, QLGHQW, on Toyopearl resin, free amino terminal | 85
* peptide 101, WIPPYN, on Toyopearl resin, free amino terminal | 84
* peptide 110, IQIWIF, on Toyopearl resin, free amino terminal | 85
